Give measured IC50 for each item. Keep answers brief.
study-target: human TLR7 (Homo sapiens (Human))
method-notes: TLR7 inhibition reporter assay (HEK-Blue, SEAP)
measurement-parameters: HEK-Blue cells overexpressing human TLR7, gardiquimod 7.5 μM stimulation
All answers are understood in nM, so give the number only.

Q: Requested read-out: IC50. Entry: "CNC(=O)c1c(-c2ccc3[nH]c(-c4ccnc(C)c4)c(C(C)C)c3c2)nn2c1CNCC2"
Ans: 9.8

Q: Repeat with Cc1cc(-c2[nH]c3ccc(-c4nc(C(=O)NCC5CCNC5)co4)cc3c2C(C)C)ccn1 (stereo not drawn)
Ans: 440

Q: Repeat with CCc1c(-c2ccc(OC)c(OC)c2)[nH]c2ccc(-c3nnc(C(=O)N4CC5CNCC5C4)o3)cc12 (stereo not drawn)
Ans: 154

----------
study-target: human TLR7 (Homo sapiens (Human), UniProt Q9NYK1)
Sequence (Q9NYK1 27-1049): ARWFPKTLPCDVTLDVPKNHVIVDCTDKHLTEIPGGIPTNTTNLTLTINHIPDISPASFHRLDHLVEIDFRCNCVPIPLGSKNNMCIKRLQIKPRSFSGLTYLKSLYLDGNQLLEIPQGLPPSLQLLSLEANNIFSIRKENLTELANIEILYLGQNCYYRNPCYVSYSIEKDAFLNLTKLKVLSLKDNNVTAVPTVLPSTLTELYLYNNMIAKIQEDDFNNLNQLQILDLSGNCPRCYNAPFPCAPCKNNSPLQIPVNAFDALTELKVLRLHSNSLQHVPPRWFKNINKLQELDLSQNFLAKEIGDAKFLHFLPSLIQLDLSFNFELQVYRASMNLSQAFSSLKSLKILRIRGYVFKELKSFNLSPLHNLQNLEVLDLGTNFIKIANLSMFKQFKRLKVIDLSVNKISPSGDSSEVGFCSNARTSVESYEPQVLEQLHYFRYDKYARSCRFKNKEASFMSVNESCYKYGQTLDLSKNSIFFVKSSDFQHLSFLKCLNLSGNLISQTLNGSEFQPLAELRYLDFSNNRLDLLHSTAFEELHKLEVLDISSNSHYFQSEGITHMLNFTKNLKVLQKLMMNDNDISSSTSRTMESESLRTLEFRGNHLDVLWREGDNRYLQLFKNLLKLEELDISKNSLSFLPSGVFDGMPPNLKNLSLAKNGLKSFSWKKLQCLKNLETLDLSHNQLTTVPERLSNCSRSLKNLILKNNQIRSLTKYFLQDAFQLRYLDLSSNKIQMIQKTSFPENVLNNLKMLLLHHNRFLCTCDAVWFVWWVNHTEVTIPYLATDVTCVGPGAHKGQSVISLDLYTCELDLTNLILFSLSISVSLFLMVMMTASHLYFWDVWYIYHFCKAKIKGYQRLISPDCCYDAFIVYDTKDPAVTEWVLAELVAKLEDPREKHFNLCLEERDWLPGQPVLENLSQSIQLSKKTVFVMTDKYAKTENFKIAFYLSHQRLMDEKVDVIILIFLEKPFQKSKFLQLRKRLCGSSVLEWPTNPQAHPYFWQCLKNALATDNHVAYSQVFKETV
method-notes: TLR7 inhibition reporter assay (HEK-Blue, SEAP)
measurement-parameters: HEK-Blue cells overexpressing human TLR7, gardiquimod 7.5 μM stimulation
measured-metric: pIC50
Quick note: pIC50 means taking -log10 of the concentration in moles per liter.

Q: Requested read-out: pIC50. Entry: Cc1cc(-c2[nH]c3ccc(-c4cc5c(s4)CN(C(=O)C4CC(=O)N(C)C4)CC5)cc3c2C(C)C)cc(C)n1 (stereo not drawn)
Ans: 6.84

Q: Repeat with Cc1cc(-c2[nH]c3ccc(-c4nnc(C5CCCNC5)[nH]4)cc3c2C(C)C)ccn1 (stereo not drawn) [Example 184]
Ans: 7.15

Q: Repeat with "Cc1cc(-c2[nH]c3ccc(-c4nnc(C5CCN(C(C)C)CC5)[nH]4)cc3c2C(C)C)ccn1"
Ans: 7.15

----------
study-target: human TLR9 (Homo sapiens (Human), UniProt Q9NR96)
Sequence (Q9NR96 26-1032): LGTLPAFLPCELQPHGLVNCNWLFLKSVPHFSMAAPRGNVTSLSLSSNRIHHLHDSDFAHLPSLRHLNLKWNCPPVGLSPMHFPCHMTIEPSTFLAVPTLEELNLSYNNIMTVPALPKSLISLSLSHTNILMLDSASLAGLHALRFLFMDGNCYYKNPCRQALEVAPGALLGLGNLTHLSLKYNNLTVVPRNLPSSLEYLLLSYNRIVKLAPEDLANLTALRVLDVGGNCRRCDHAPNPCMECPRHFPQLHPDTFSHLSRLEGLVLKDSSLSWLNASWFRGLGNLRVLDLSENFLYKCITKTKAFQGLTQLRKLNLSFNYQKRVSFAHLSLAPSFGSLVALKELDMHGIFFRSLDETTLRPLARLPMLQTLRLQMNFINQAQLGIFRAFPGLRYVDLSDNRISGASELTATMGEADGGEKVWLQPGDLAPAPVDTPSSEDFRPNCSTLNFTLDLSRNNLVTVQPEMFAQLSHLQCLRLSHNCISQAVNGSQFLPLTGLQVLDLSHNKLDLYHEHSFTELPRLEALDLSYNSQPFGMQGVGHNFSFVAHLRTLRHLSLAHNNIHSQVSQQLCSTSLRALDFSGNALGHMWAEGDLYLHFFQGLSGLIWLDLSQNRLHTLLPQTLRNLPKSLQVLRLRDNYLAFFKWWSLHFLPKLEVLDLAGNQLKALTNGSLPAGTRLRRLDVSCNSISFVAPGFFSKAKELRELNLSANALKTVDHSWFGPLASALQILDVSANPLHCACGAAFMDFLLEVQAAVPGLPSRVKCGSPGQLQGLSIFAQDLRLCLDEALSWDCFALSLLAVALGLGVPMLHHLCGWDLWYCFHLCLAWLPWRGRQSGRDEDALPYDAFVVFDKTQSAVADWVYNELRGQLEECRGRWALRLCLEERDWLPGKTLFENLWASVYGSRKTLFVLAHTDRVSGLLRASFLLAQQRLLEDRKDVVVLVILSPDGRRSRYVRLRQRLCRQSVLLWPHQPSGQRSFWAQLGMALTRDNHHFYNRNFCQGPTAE
method-notes: TLR9 inhibition reporter assay (HEK-Blue, SEAP)
Format: cell-based
measurement-parameters: HEK-Blue cells overexpressing human TLR9, ODN2006 5 nM stimulation
measured-metric: pIC50
Quick note: pIC50 means taking -log10 of the concentration in moles per liter.

Q: Requested read-out: pIC50. Entry: Cc1cc(-c2[nH]c3ccc(-c4cc(NC(=O)OC(C)(C)C)c5nccn5c4)cc3c2C(C)C)cc(C)n1 [Example 303]
Ans: 4.48

Q: Repeat with Cc1cc(-c2[nH]c3ccc(-c4cn5cc(C)nc5cc4F)cc3c2C(C)C)cc(C)n1 [Example 348]
Ans: 5.44

Q: Repeat with COc1ccc(-c2[nH]c3ccc(-c4ccc(N5CCN(C(C)C)CC5)nc4)cc3c2C(C)C)cc1OC [Example 393]
Ans: 6.18

Q: Repeat with Cc1cc(-c2[nH]c3ccc(-c4nnc(C5CCCN(C)C5)o4)cc3c2C(C)C)ccn1 (centres unmarked) [Example 170]
Ans: 6.18

Q: Repeat with Cc1cc(-c2[nH]c3ccc(-c4nc(C(=O)NCCCCN5CCCC5)co4)cc3c2C(C)C)cc(C)n1 [Example 285]
Ans: 6.33

Q: Repeat with Cc1cc(-c2[nH]c3ccc(-c4nnc(C5CNCCO5)o4)cc3c2C(C)C)ccn1 (centres unmarked) [Example 70]
Ans: 5.30

Q: Repeat with COc1ccc(-c2[nH]c3ccc(-c4cccc(C(=O)N5CC[C@@H](O)C5)c4)cc3c2CC(F)(F)F)cc1OC [Example 34]
Ans: 4.83

Q: Repeat with CCc1c(-c2ccc(OC)c(OC)c2)[nH]c2ccc(-c3noc(CCN(C)C)n3)cc12 [Example 454]
Ans: 4.95

Q: Repeat with Cc1cc(-c2[nH]c3ccc(-c4nc(C(=O)NCC(C)(C)N5CCOCC5)co4)cc3c2C(C)C)cc(C)n1 [Example 289]
Ans: 5.68

Q: Repeat with CC(C)c1c(-c2ccnc(N)c2)[nH]c2ccc(-c3nc(C(=O)NC4CCN(C(C)C)CC4)co3)cc12 [Example 160]
Ans: 5.41

Q: Repeat with COc1ccc(-c2[nH]c3ccc(-c4cccc(C(=O)NCC(N)=O)c4)cc3c2CC(F)(F)F)cc1OC [Example 28]
Ans: 4.49

Q: Repeat with COc1ccc(-c2[nH]c3ccc(-c4nnc(C[C@@H]5CCCCN5)o4)cc3c2C(C)C)cc1OC [Example 50]
Ans: 5.97

Q: Repeat with Cc1cc(-c2[nH]c3ccc(-c4nc(C(=O)NCCN5CCOCC5)co4)cc3c2C(C)C)cc(C)n1 [Example 281]
Ans: 4.95

Q: Repeat with Cc1cc(-c2[nH]c3ccc(-c4nnc(C5CCNCC5)[nH]4)cc3c2C(C)C)ccn1 [Example 196]
Ans: 5.16

Q: Repeat with Cc1cc(-c2[nH]c3ccc(-c4nnc([C@H]5Cc6ccccc6CN5)o4)cc3c2C(C)C)ccn1 [Example 72]
Ans: 5.73

Q: Repeat with Cc1cc(-c2[nH]c3ccc(-c4nnc([C@@H]5CCCNC5)o4)cc3c2C(C)C)ccn1 [Example 80]
Ans: 6.23

Q: Repeat with COc1ccc(-c2[nH]c3ccc(-c4nnc(C(=O)NC5CCN(C(C)C)CC5)o4)cc3c2C(C)C)cc1OC [Example 59]
Ans: 6.03

Q: Repeat with Cc1cc(-c2[nH]c3ccc(-c4nnc(CC(C)(C)N)o4)cc3c2C(C)C)ccn1 [Example 265]
Ans: 6.25
